Provenance of the data: paper PMC5540273

Test system: ZAP70
Settings: concentration: 1 μM, replicates: in singlicate; n = 1;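 also: KINOMEscan kinase panel screen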
Test readout: %Inh (%)
Field format: number, assumed %, no unit text.

// known answers, use as guide
[
  {
    "Compound": "Nc1nc(N)c2nc(-c3ccccc3)[nH]c2n1 [SKF-12778]",
    "Test readout": "%Inh",
    "Unit text": "%",
    "Meas value": 14
  },
  {
    "Compound": "Cc1nc(N(C)[C@H]2CN(C(=O)CC#N)CC[C@H]2C)c2cc[nH]c2n1",
    "Test readout": "%Inh",
    "Unit text": "%",
    "Meas value": 0
  }
]

Task: Reported %Inh, compound O=c1cc(N2CCOCC2)nc2n(Cc3ccc(F)c(Cl)c3)ccn12 [GSK2297099] : ____
Result: 0

Task: Reported %Inh, compound Nc1ncnc2c1ncn2-c1cccc(F)c1 [SKF-97560] : ____
Result: 21

Task: Reported %Inh, compound COc1cccc(-n2cnc3c(N)ncnc32)c1 [SKF-97416] : ____
Result: 25

Task: Reported %Inh, compound COc1ccc(-c2cc3c(C)nc(N)nc3n([C@H]3CC[C@H](O)CC3)c2=O)cn1 : ____
Result: 0

Task: Reported %Inh, compound CCC(=O)c1c(-c2ccccc2)c2cc(Cl)ccc2c(=O)n1Cc1ccc(C(=O)O)cc1 : ____
Result: 0

Task: Reported %Inh, compound O=C(Nc1n[nH]c2nc(-c3ccccc3)c(Br)cc12)C1CC1 [SB-708998] : ____
Result: 5

Task: Reported %Inh, compound COC(=O)c1c(-c2ccccc2)c2cc(C)ccc2c(=O)n1Cc1ccccc1 : ____
Result: 0

Task: Reported %Inh, compound Cc1cc(Nc2nc(-c3cccc(C)n3)nc3ccccc23)ccn1 [GW872411] : ____
Result: 0

Task: Reported %Inh, compound Cc1ccc(-c2ccc3c(ccc4sc5c(c43)NC[C@@H](C)N=C5N(C)C)n2)cn1 : ____
Result: 0

###

Tested on: AXL
Conditions: concentration: 1 μM, replicates: in singlicate; n = 1
Entries and their %Inh
Give the figure together with its unit, number first.

// known answers, use as guide
[
  {
    "Compound": "COc1cccc(-n2cnc3c(N)ncnc32)c1",
    "%Inh": "0%"
  },
  {
    "Compound": "COc1ccc(-c2cc3c(C)nc(N)nc3n([C@H]3CC[C@H](O)CC3)c2=O)cn1",
    "%Inh": "0%"
  },
  {
    "Compound": "CCC(=O)c1c(-c2ccccc2)c2cc(Cl)ccc2c(=O)n1Cc1cc(S(C)(=O)=O)n(CC(F)F)n1",
    "%Inh": "0%"
  },
  {
    "Compound": "CN1C(=O)C(Nc2ccccc2)=C(c2ccccc2)C1=O",
    "%Inh": "0%"
  },
  {
    "Compound": "Nc1ncnc2c1ncn2-c1cccc(F)c1",
    "%Inh": "13%"
  },
  {
    "Compound": "COc1cc(Nc2nccc(N3CCC(NC(=O)C4COc5ccccc5O4)C3)n2)cc(OC)c1OC (stereo not drawn)",
    "%Inh": "17%"
  }
]

Task: State its %Inh on AXL: O=C1NC(=O)C(c2ccccc2)=C1Nc1cccc(O)c1
Result: 27%

Task: State its %Inh on AXL: Nc1ncnc2c1ncn2-c1cccc2ccccc12
Result: 0%

Task: State its %Inh on AXL: Cc1nnc(-c2ccc3ncn(-c4ccc(S(C)=O)cc4)c3c2)o1 (stereo not drawn)
Result: 4%

###

System: LATS1
Details: concentration: 1 μM, replicates: in singlicate; n = 1
Test readout: %Inh
Give the figure together with its unit, number first.

// known answers, use as guide
[
  {
    "Compound": "OCCCNc1nccc(-c2c(-c3cccc(C(F)(F)F)c3)nn3cc(C(F)(F)F)ccc23)n1 [GW630813]",
    "%Inh": "0%"
  },
  {
    "Compound": "CCC(=O)c1c(-c2ccccc2)c2cc(Cl)ccc2c(=O)n1Cc1ccc(C(=O)O)cc1",
    "%Inh": "2%"
  },
  {
    "Compound": "COc1cccc(C2=C(Nc3cccc(C(=O)O)c3)C(=O)NC2=O)c1 [SB-390770]",
    "%Inh": "0%"
  },
  {
    "Compound": "CCn1c(-c2nonc2N)nc2ccccc21 [SB-693162/GW549034]",
    "%Inh": "0%"
  },
  {
    "Compound": "CCCC(=O)Nc1n[nH]c2ncc(-c3cccc4ccccc34)cc12 [SB-642057]",
    "%Inh": "0%"
  }
]

Task: Reported %Inh, compound Cc1ccc(Oc2ccc(Nc3ncnc4cc[nH]c34)cc2C)cn1 : ____
Result: 26%

Task: Reported %Inh, compound COc1cc2ncn(-c3cc(OCc4ccc(S(C)(=O)=O)cc4)c(C(N)=O)s3)c2cc1OC [GW869979] : ____
Result: 0%

Task: Reported %Inh, compound O=C(Nc1n[nH]c2nc(-c3ccccc3)c(Br)cc12)C1CC1 [SB-708998] : ____
Result: 0%

Task: Reported %Inh, compound FC(F)(F)c1ccc(-c2ncn(CCCN3CCOCC3)c2-c2ccncc2)cc1 [SB-217780] : ____
Result: 0%

###

System: DMPK2
Construct: gene CDC42BPG
Conditions: concentration: 1 μM, replicates: in singlicate; n = 1
Test readout: %Inh (%)
Field format: number, assumed %, no unit text.

[
  {
    "Smiles entry": "CCn1c(-c2ccoc2)nc2cnccc21",
    "%Inh / %": 0
  },
  {
    "Smiles entry": "Nc1n[nH]c2nnc(-c3ccccc3)c(-c3ccccc3)c12",
    "%Inh / %": 0
  }
]

Pending compound:
Task: Reported %Inh, compound Nc1ncnc2c1ncn2-c1ccc(Cl)cc1 : ____
Result: 12

###

Test system: EPHB2
Conditions: concentration: 1 μM, replicates: in singlicate; n = 1
Test readout: %Inh
Give the figure together with its unit, number first.

// known answers, use as guide
[
  {
    "Smiles entry": "C[C@@H]1CC[C@H](C(=O)NC2CCCCC2)CN1c1cc(-c2ccc3c(N)n[nH]c3c2)nc(N)n1",
    "%Inh": "8%"
  },
  {
    "Smiles entry": "COc1cc2ncn(-c3cc(OCCCc4ccccc4)c(C(N)=O)s3)c2cc1OC",
    "%Inh": "0%"
  },
  {
    "Smiles entry": "COc1cc2ncn(-c3cc(OCc4ccncc4)c(C(N)=O)s3)c2cc1OC",
    "%Inh": "0%"
  }
]

Pending compound:
Task: Reported %Inh, compound COc1cc2nccc(Nc3ccc(OCc4ccc(NC(C)=O)cc4)cc3)c2cc1OC.Cl : ____
Result: 0%

###

Test system: INSR
Details: concentration: 1 μM, replicates: in singlicate; n = 1
Entries and their %Inh

// known answers, use as guide
[
  {
    "Molecule": "O=C(NCc1cccs1)c1cc(C(=O)c2c(Cl)cccc2Cl)c[nH]1",
    "%Inh": "0%"
  },
  {
    "Molecule": "CN1C(=O)C(Nc2cc(Cl)c(O)c(Cl)c2)=C(c2ccc(Cl)cc2)C1=O",
    "%Inh": "0%"
  },
  {
    "Molecule": "COc1cccc(C2=C(Nc3cccc(C(=O)O)c3)C(=O)NC2=O)c1",
    "%Inh": "0%"
  }
]

Task: State its %Inh on INSR: O=C(Nc1n[nH]c2nc(-c3ccccc3)c(Br)cc12)C1CC1
Result: 7%

Task: State its %Inh on INSR: Cc1ccc(-c2ccc3c(ccc4sc5c(c43)NC[C@@H](C)N=C5N(C)C)n2)cn1
Result: 0%

Task: State its %Inh on INSR: Fc1cccc(CSc2nnc(-c3ccc4c(c3)CCO4)o2)c1
Result: 23%

Task: State its %Inh on INSR: Cc1cc(Nc2nc(-c3cccc(C)n3)nc3ccccc23)ccn1
Result: 0%

Task: State its %Inh on INSR: CCn1c(-c2nonc2N)nc2ccccc21
Result: 17%

Task: State its %Inh on INSR: COc1cc(Nc2nccc(N3CCC(NC(=O)C4COc5ccccc5O4)C3)n2)cc(OC)c1OC (stereo not drawn)
Result: 0%

Task: State its %Inh on INSR: O=C(NCCNc1ccnc(Nc2ccc(F)cc2)n1)Nc1ccc2c(c1)OCO2
Result: 7%

Task: State its %Inh on INSR: Cc1ccc(Oc2ccc(Nc3ncnc4cc[nH]c34)cc2C)cn1
Result: 11%

Task: State its %Inh on INSR: FC(F)(F)c1ccc(-c2ncn(CCCN3CCOCC3)c2-c2ccncc2)cc1
Result: 0%

Task: State its %Inh on INSR: COc1cc2ncn(-c3cc(OCc4ccc(S(C)(=O)=O)cc4)c(C(N)=O)s3)c2cc1OC
Result: 13%

Task: State its %Inh on INSR: Cc1nnc(-c2ccc(C)c(-c3ccc(C(=O)O)cc3)c2)o1
Result: 0%

Task: State its %Inh on INSR: CCC(=O)c1c(-c2ccccc2)c2cc(Cl)ccc2c(=O)n1Cc1cc(S(C)(=O)=O)n(CC(N)=O)n1
Result: 0%

Task: State its %Inh on INSR: COc1ccc(-c2cc3c(C)nc(N)nc3n([C@H]3CC[C@H](OCCO)CC3)c2=O)cn1
Result: 24%

Task: State its %Inh on INSR: CCC(=O)c1c(-c2ccccc2)c2cc(Cl)ccc2c(=O)n1Cc1cc(C(=O)NC2CC2)n(C)n1
Result: 0%

Task: State its %Inh on INSR: COc1cc2ncn(-c3cc(OCc4ccncc4Br)c(C(N)=O)s3)c2cc1OC
Result: 1%
